- Read-out: Thrombomodulin, THBD (gene 7056)
- protocol-text: BSK_CASM3C_Thrombomodulin: BioMAP Diversity Plus: CASM3C Assay for Thrombomodulin Biomarker Activity (AID 2283051);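 further: thrombomodulin protein level measured by ELISA 24 h after dosing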
- measurement-parameters: primary human coronary artery smooth muscle cells; actives raise or lower the signal
Active and inactive are the calls of the source. How the source made its calls: active means hit-call score of the fitted dose curve at least 0.9, where 1 is the maximum; inactive means score below 0.9.
Bench note: report the call from true (1) = active, false (0) = inactive

// return assay outcome for OCCN1CCOCC1 false (0)

For this molecule, state the assay outcome: CCOC(=O)CCCCCCCCC(=O)OCC false (0)

Give the logged outcome of this assay for the following molecule: C=C1CC/C=C(\C)CC[C@@H]2[C@@H]1CC2(C)C false (0)

Called result for c1ccc(OCCOc2ccccc2)cc1 false (0)

Kindly provide the recorded test outcome for the following molecule: CCOC(=O)C=Cc1ccccc1 false (0)

Given CCCCOCCOCCO , state the outcome it received in this test. false (0)

// return assay outcome for O=C(c1ccc(OCCN2CCCCC2)cc1)c1c(-c2ccc(O)cc2)sc2cc(O)ccc12 false (0)

Answer briefly: the call reported for CC(C)(C)c1cccc(O)c1 in this assay. false (0)

Hey, what did the test say about c1ccc2c(c1)-c1ccc3ccc4cccc5cc-2c1c3c45 ? false (0)

Which result was noted for this molecule in the test: CC1(C)[C@H](C=C(Cl)Cl)[C@H]1C(=O)OCc1cccc(Oc2ccccc2)c1 false (0)

Please share the test call associated with CC1=CC(C)C(C=O)C(C)C1 (centres undefined) (tested in a mixture with another compound) . false (0)

For CCCO[Si](OCCC)(OCCC)OCCC , what call appears in the results of this test? false (0)

Recorded test outcome, item Nc1ccc(N)c([N+](=O)[O-])c1 false (0)

Write down the call the test reported for this molecule. Item: CCn1cc(C(=O)O)c(=O)c2ccc(C)nc21 false (0)

Record lookup: outcome of this test for O=C(O)C(F)(F)C(F)(F)C(F)(F)C(F)(F)C(F)(F)C(F)(F)C(F)(F)C(F)F ? false (0)

Each molecule tested received a call. Report the one for C=C(C)C(=O)OCCC(F)(F)C(F)(F)C(F)(F)C(F)(F)C(F)(F)C(F)(F)C(F)(F)C(F)(F)F . false (0)

Recorded call for CC(C)Cc1ccc(C(C)C(=O)O)cc1 (centres undefined) ? true (1)

// param item: NC(=O)c1c(Cl)cccc1Cl ; yields the recorded call false (0)

Called result for O=C1OC2(c3ccc(O)cc3Oc3cc(O)ccc32)c2ccccc21 false (0)

Answer briefly: the call reported for COC(=O)c1ccc(C(=O)OC)cc1 in this assay. false (0)

Called result for CC(=O)CCC=C(C)CCC=C(C)C false (0)

What outcome does the record of this test show for c1ccc(Sc2ccccc2)cc1 ? false (0)

Dear all, I need the recorded test outcome for C[C@]12CC[C@@H]3c4ccc(O)cc4CC[C@H]3[C@@H]1CC[C@@H]2O , thank you. false (0)

# lookup: test call for C=C(F)C(=O)OC(C(F)(F)F)C(F)(F)F false (0)

Each molecule tested received a call. Report the one for COc1ccccc1NC(=O)CC(C)=O . false (0)

Record lookup: outcome of this test for CC=CC(=O)C1=C(C)C=CCC1(C)C ? false (0)

Give the logged outcome of this assay for the following molecule: C=C(C)C(N)=O false (0)

Given CC(=O)OC(C)(C)C1CC=C(C)CC1 (centres undefined) , state the outcome it received in this test. false (0)

Outcome? O=S(=O)(O)C(F)(F)C(F)(F)OC(F)(F)C(F)(F)F false (0)

* * *

- Read-out: Forkhead box O1 (FOXO1), FOXO1 (gene 2308)
- protocol-text: LTEA_HepaRG_FOXO1: Life Technologies and Expression Analysis (LTEA) Assay for Forkhead box O1 (FOXO1) using HepaRG (AID 2283456)
- measurement-parameters: mRNA level, 48 h; actives raise or lower the signal
- Experimental: LTEA_HepaRG is a cell based, multiplexed-readout assay that uses HepaRG, a human liver cell line, with measurements taken at 48 hours after chemical dosing on a 96-well plate.LTEA_HepaRG_FOXO1 is one of 102 assay component(s) measured in the LTEA HepaRG cell culture assay. It is a marker of Cell proliferation, survival, death.Data from the assay component LTEA_HepaRG_FOXO1 was analyzed into 1 endpoint. […]
The source made the active and inactive calls. Rule for the calls: active = hit-call score of the fitted dose curve at least 0.9, where 1 is the maximum; inactive = score below 0.9.
Entry note: the call must match one of 1.0 (active), 0.0 (inactive)

Answer briefly: the call reported for C#C[C@]1(O)CC[C@H]2[C@@H]3CCc4cc(O)ccc4[C@H]3CC[C@@]21C in this assay. 0.0

Look up the recorded call for O=C(c1ccc(OCCN2CCCCC2)cc1)c1c(-c2ccc(O)cc2)sc2cc(O)ccc12 in this test. 1.0

For CCCCOCCOCCO , what call appears in the results of this test? 0.0

In this assay, the call recorded for C=C(C)C(N)=O was what? 0.0

* * *

- protocol-text: TOX21_p53_BLA_p2_viability: Viability Assessment in the Tox21 HCT-116 p53 Agonism Beta-lactamase Assay, Phase 2 (AID 2283591);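 further: compound exposure lasted 16 h at 37 °C; actives lower the ATP signal meaning cytotoxicity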
Records with an inconclusive call do not appear. Active and inactive are the calls of the source. How the source made its calls: active means hit-call score of the fitted dose curve at least 0.9, where 1 is the maximum; inconclusive means response in the unintended direction; inactive means score below 0.9.
Returns: one label drawn from active, inactive

How did this test come out for COc1ccc(OC)cc1 ? inactive

Test call, this compound: O=[N+]([O-])c1cc(N(CCO)CCO)ccc1NCCO inactive

Lab log entry: CC1(C)CC(N)CC(C)(CN)C1 (stereo unspecified) — outcome as called in the assay? inactive

For CCO[Si](CC)(OCC)OCC , which call appears in the assay record? inactive

Hey, what did the test say about CC(C)(C)c1cccc(O)c1 ? inactive

Per the records of this test, what outcome belongs to CCCc1ccc(O)cc1 ? inactive

Fill in: this test's call for C[Si]1(C)N[Si](C)(C)N[Si](C)(C)N1 is ___ inactive

What outcome does the record of this test show for CC(=O)C1C(=O)C=C(C)OC1=O (stereo unspecified) ? inactive

Would you mind telling me which call this test gave C=C(C)C(=O)OCCN(C)C ? inactive

What was the test verdict on [O-]/[N+](=N\O)c1ccccc1 ? inactive

Which outcome was entered for the compound O=C(Nc1cccc(Cl)c1)OCC#CCCl in this test? active

# lookup: test call for CCCCCCCOC(C)=O inactive

Please indicate how the test categorized C=CCOCC(O)CO (stereo unspecified) . inactive

Tell me the assay call for FC(F)(F)c1ccc(Cl)c(Cl)c1 please. inactive

Fill in: this test's call for [Na+] is ___ inactive

Given CC(=O)CCC=C(C)CCC=C(C)C , state the outcome it received in this test. inactive

* * *

- protocol-text: ATG_AP_1_CIS: Attagene CIS-FACTORIAL HepG2 Assay for human Activator Protein 1 (AP-1) (AID 2282931)
- measurement-parameters: HepG2 Attagene cis-factorial AP-1 reporter mRNA; actives raise or lower the signal
Calls of active or inactive are those of the source. The calls were made as follows: active = hit-call score of the fitted dose curve at least 0.9, where 1 is the maximum; inactive = score below 0.9.
Your answer must be one of the following: true (1) (active), false (0) (inactive)

Recorded call for Cc1ccncc1 ? false (0)

I would be grateful if you could indicate the recorded call for CC12CCC(C1)C(C)(C)C2O (stereo not given) . false (0)

Answer briefly: the call reported for CC1(C)[C@H](C=C(Cl)Cl)[C@H]1C(=O)OCc1cccc(Oc2ccccc2)c1 in this assay. false (0)

Recorded test call requested for N=C1N=C(N)c2ccccc21 false (0)

Tell me the assay call for CC1(C)CC(N)CC(C)(CN)C1 (stereo not given) please. false (0)

Please state the recorded outcome for this compound: CC(=O)c1cccnc1 false (0)

So what was the verdict on CC(C)=CCCC(C)=CC(=O)O in this test? false (0)

Please let me know the test result on file for CCCC1CCC(=O)CC1 . false (0)

Assay result, entry CC(C)(O)C(=O)c1ccc(OCCO)cc1 — outcome? false (0)

Test call, this compound: CC1=CC(C)C(C=O)C(C)C1 (stereo not given) (tested in a mixture with another compound) false (0)

Would you mind telling me which call this test gave CCCCCCCCSCc1cc(C)c(O)c(CSCCCCCCCC)c1 ? false (0)

Entry O=c1cc(-c2ccc(O)cc2)oc2cc(O)cc(O)c12 : call = ? true (1)

Write down the call the test reported for this compound. Item: C[C@]12CC[C@@H]3c4ccc(O)cc4CC[C@H]3[C@@H]1CC[C@@H]2O false (0)

Record lookup: outcome of this test for O=S1(=O)CC(Cl)(Cl)C(Cl)(Cl)C1 ? false (0)

Short answer needed: outcome of this test for CCCCCc1cccc(=O)o1 ? false (0)

Any idea what this test logged for C=CC(C)(CCC=C(C)C)OC(=O)CC (stereo not given) ? false (0)

Just curious, what result did CCC(C)(C)C1CCC(OC)CC1 (stereo not given) get here? false (0)

// outcome(item) with item = C=CC(C)CCCC(C)(C)O (stereo not given) false (0)

Called result for CCCc1ccc(O)cc1 false (0)

How was CCC(C)(C)c1cc(O)c(C(C)(C)CC)cc1O classified in this test? false (0)

Please let me know the test result on file for C=C(C)C(=O)OCCC[Si](OC)(OC)OC . false (0)

Tell me the assay call for CCCCCCCCOC(C)=O please. false (0)

Please share the test call associated with CN(C)c1ccc(C=O)cc1 . false (0)

Entry CC(O)COCC(C)O (stereo not given) : call = ? false (0)

For this compound, state the assay outcome: CN(C)CCC=C1c2ccccc2CCc2ccccc21 true (1)

Recorded call for CC(=O)OCC=C(C)CCC=C(C)CCC=C(C)C ? true (1)

Outcome? O=Cc1ccccc1O false (0)

GET /call?item= CCOC(=O)CC(C)C returns the recorded outcome of this test. false (0)

Outcome logged for NC(=O)c1c(Cl)cccc1Cl in this assay: false (0)

For CCn1cc(C(=O)O)c(=O)c2ccc(C)nc21 , which call appears in the assay record? false (0)
